Cited source: paper PMC12037410

# maps each entry to its Bmal1(PASB) dTmB
# Assay system: BMAL1 (Homo sapiens)
# Set-up: PASB domain (residues 338–449); Protein thermal shift (PTS) fragment screen on recombinant human BMAL1(PASB), shift of melting temperature
# Details: dTmB; binder
Measurement name: Bmal1(PASB) dTmB

CCN(CC)CCOC(=O)c1ccccc1 [Prestw-Frag-1735, Compound 406] = -0.48 °C
COc1cc2ccncc2cc1OC [Prestw-Frag-1183, Compound 290] = -1.26 °C
NCCOC(c1ccc(F)cc1)c1ccc(F)cc1 [Prestw-Frag-1925, Compound 448] = -1.45 °C
CCNC(=O)c1ccc(Cl)cc1 [Prestw-Frag-2818, Compound 347] = -0.36 °C
Cc1ccc(N)c(C#N)c1 [Prestw-Frag-3060, Compound 394] = -0.18 °C
c1ncc(C2CCNCC2)[nH]1 [Prestw-Frag-3753, Compound 303] = -0.23 °C
O=C1COc2cc(O)ccc21 [Prestw-Frag-3703, Compound 77] = 0.62 °C
CN(C)C(=O)C(c1ccccc1)c1ccccc1 [Prestw-Frag-1453, Compound 166] = -0.94 °C
COc1ccc2ccncc2c1 [Prestw-Frag-1133, Compound 321] = -1.08 °C

---

# Assay system: BMAL1 (Homo sapiens)
# Design: PASB domain (residues 338–449); Protein thermal shift (PTS) fragment screen on recombinant human BMAL1(PASB), shift of melting temperature
# Details: dTmB; binder
Residues, ends and D or L forms follow the SMILES beside them.
# maps each entry to its Bmal1(PASB) dTmB
Measurement name: Bmal1(PASB) dTmB (°C)

CN1CCC[C@H]1c1cccnc1 = -0.52
NCCCOc1cccc(CN2CCCCC2)c1 = -1.04
COc1cc(C(N)=O)cc(OC)c1OC = -0.33
OC1(c2ccc(Cl)cc2)CCNCC1 = -1.00
Cc1cccc(Nc2ccccc2C(=O)O)c1 = -0.74
OCCc1ccc(Cl)cc1 = 0.02
OC(Cn1ccnc1)c1ccc(Cl)cc1Cl (centres unmarked) = -0.85
C[C@H](N)C(=O)N1CCC[C@H]1C(=O)O [Prestw-Frag-1275, Compound 264] (H-Ala-Pro-OH) = -0.70
N#Cc1ccc[nH]c1=O = -0.07
O=C1CNS(=O)(=O)c2ccsc21 = -4.81
N#CCC(=O)N1CCCCC1 = 0.12
COC(=O)C(c1ccccc1)c1ccccc1 = -1.32
Nc1ncnc2c1ncn2CCO = -0.48
NC(=O)Cc1ccccc1 = -0.74
c1ccc(C2CCCNCC2)cc1 (centres unmarked) = -0.85
CC(=O)Nc1nncs1 = -0.09
FC(F)(F)c1nnc2n1CCNC2 = 0.11
COc1ccc2[nH]cc(CCN)c2c1 = 3.24
Cc1cc(C)[nH]c(=O)n1 = 0.01
OC1CCN(c2ccccc2F)CC1 = -0.09
OCCCN1CCN(c2ccccc2)CC1 = -0.31
c1ccc(CC2NCCc3ccccc32)cc1 (centres unmarked) = -1.30
CN1C(=O)CCC1=O = 0.17
Nc1ccc(CS(=O)(=O)N2CCCC2)cc1 = -0.24
CN(C)Cc1ccc(CSCCN)o1 = -2.44
CN(C)C(c1ccccc1)c1ccccc1 = -1.24
O=C(O)c1ccccc1NCc1ccco1 = -0.26
COc1ccc(CNCCN(C)C)cc1 = -0.14
CCC(=O)NC1=NC=NC2=NC=NC21 (centres unmarked) = -0.65
O=C(Cc1ccccc1F)C1CC1 = -1.49
Nc1ccn([C@H]2C[C@H](O)[C@@H](CO)O2)c(=O)n1 = -0.01
CCCC(=O)Nc1ccc(O)c(C(C)=O)c1 = -1.04
Cc1oncc1C(N)=O = -0.10
O=c1[nH]nc2ccccn12 = -1.05
COC(=O)C(CO)c1ccccc1 (centres unmarked) = -0.21
CCN1CCCC1CN (centres unmarked) = -0.56
c1ccc2c(c1)CCNCC2 = -0.06
c1ccc2[nH]c(CN3CCCC3)nc2c1 = -0.18

---

# Assay system: BMAL1 (Homo sapiens, UniProt O00327)
# Sequence (O00327 338-449): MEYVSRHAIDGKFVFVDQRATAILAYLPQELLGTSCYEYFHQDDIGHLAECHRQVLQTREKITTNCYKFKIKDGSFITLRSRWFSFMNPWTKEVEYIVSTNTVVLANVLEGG
# Design: PASB domain (residues 338–449); Protein thermal shift (PTS) fragment screen on recombinant human BMAL1(PASB), shift of melting temperature
# Details: dTmB; binder
Exam item: assign 1.0 to entries whose Bmal1(PASB) dTmB is below -1 °C and 0.0 to entries at or above -1 °C. Note that a value of exactly -1 °C receives 0.0.

COC(=O)C(O)(c1ccccc1)C1CCCCC1 (stereo not shown) = 1.0
Oc1ccc2[nH]ccc2c1 = 0.0
O=C(O)C(CO)c1ccccc1 (stereo not shown) = 1.0
Oc1cccc2c1CCCC2 = 1.0
Cc1[nH]c2ccccc2c1CC(=O)O = 1.0
COC(=O)c1c[nH]c2ccccc12 = 0.0
Cn1ccc(=O)[nH]1 = 0.0
CC(N)C(=O)c1ccccc1 (stereo not shown) = 0.0
NC(=O)c1ccccn1 = 0.0
c1cnccn1 = 0.0

---

# Assay system: BMAL1 (Homo sapiens)
# Design: PASB domain (residues 338–449); Protein thermal shift (PTS) fragment screen on recombinant human BMAL1(PASB), shift of melting temperature
# Details: dTmB; binder
# maps each entry to its Bmal1(PASB) dTmB
Measurement name: Bmal1(PASB) dTmB (°C)

O=c1[nH]ncc2ccccc12 = -0.38
CC(=O)Nc1ccccn1 = -0.28
O=C(O)CCC(=O)c1ccccc1 = -0.11
NNCCc1ccccc1 = -1.46
CNCCc1ccc(OC)c(OC)c1 = -0.19

---

# Assay system: UniProt:O00327
# Set-up: PASB domain (residues 338–449); Protein thermal shift (PTS) fragment screen on recombinant human BMAL1(PASB), shift of melting temperature
# Details: dTmB; binder
Measurement name: Bmal1(PASB) dTmB (°C)

OCc1ccc(O)cc1 = -0.16
Clc1ccc(CNc2ccccn2)cc1 = -0.84
OCCN1CCN(c2ccccc2)CC1 = -0.42
OC(c1ccc(F)cc1)c1ccc(F)cc1 = -1.89
c1ccc(-n2ccc3ccccc32)cc1 = -0.07
OCc1ccc(F)cc1F = 0.05
O=C1Cc2cc(F)ccc2N1 = -0.23
Nc1cccc(C(F)(F)F)c1 = 0.29
O=C1COCCN1 = -0.27
Oc1ccccc1C1CCCC1 = -2.14

---

# Assay system: UniProt O00327
# Design: PASB domain (residues 338–449); Protein thermal shift (PTS) fragment screen on recombinant human BMAL1(PASB), shift of melting temperature
# Details: dTmB; binder
Measurement name: Bmal1(PASB) dTmB (°C)

CC(C)C1NCCc2c1[nH]c1ccccc21 (centres unmarked) = -1.09
OCc1cc(O)cc(O)c1 = -0.85
NNC(=O)c1ccncc1 = -0.26
Fc1ccc(CN2CCNCC2)cc1 = -1.00
CC(=O)c1cc(Cl)ccc1O = -0.22
c1ccc(-n2ccnc2)cc1 = -0.78
O=C(O)c1cccnc1Nc1cccc(Cl)c1 = -0.34
Cc1cc(-c2ccccc2)nnc1N = -0.88
CCNC(=O)c1cccnc1 = 0.17
OCCn1cncn1 = 0.19
COc1ccc(Cl)cc1C(N)=O = -0.78
COc1ccc(N)nn1 = -0.58
Nc1ncn([C@@H]2O[C@H](CO)[C@@H](O)[C@H]2O)c(=O)n1 = -0.02
CC(=O)N1CCN(c2ccc(O)cc2)CC1 = -2.09
OCc1ccncc1 = -0.35
NS(=O)(=O)c1ccccc1C(F)(F)F = -0.07
NCCc1ccc(O)cc1 = -0.26
CCOc1ccccc1O = -0.47
Cc1nnc(N)s1 = -1.77
O=c1ccn([C@H]2C[C@H](O)[C@@H](CO)O2)c(=O)[nH]1 = 0.09

---

# Assay system: BMAL1 (Homo sapiens, UniProt O00327)
# Design: PASB domain (residues 338–449); Protein thermal shift (PTS) fragment screen on recombinant human BMAL1(PASB), shift of melting temperature
# Details: dTmB; binder
# maps each entry to its Bmal1(PASB) dTmB
Measurement name: Bmal1(PASB) dTmB (°C)

COc1ccc2cc[nH]c2c1 = 0.28
Cc1ccc(S(=O)(=O)NC(N)=O)cc1 = 0.07
O=C1CCc2ccccc2N1 = -2.13
Cc1ccc(C#N)c(=O)[nH]1 = -0.34
CNC(=O)c1cnc(C)cn1 = 0.06
O=C1c2ccc(Cl)cc2CCc2cccnc21 = -4.79
Cc1c[nH]c(=O)[nH]c1=O = -0.13
c1ccc2nccnc2c1 = 0.23
CN1CCN(CCCC(=O)c2ccc(F)cc2)CC1 = -0.28
CC(C)(C)OC(=O)/C=C/c1ccccc1 = -0.17
Nc1ccc[nH]c1=O = -2.04
CCOC(=O)c1cccnc1 = -0.50
OCC(O)COc1ccccc1 (centres unmarked) = 0.63
Nc1nc2c(s1)CCCC2 = -5.59
C[C@@H](O)c1cc(C(F)(F)F)cc(C(F)(F)F)c1 = -0.34
COc1ccc(C(C)=O)c(O)c1 = 0.06
O=c1[nH]cncc1-c1ccccc1 = -0.26
NC1CCC(=O)NC1=O (centres unmarked) = -0.05
Cc1[nH]cnc1CO = 0.29
CS(=O)(=O)c1ccc(N)cc1 = -0.40
